System: NCI-H2122
testMethodNotes: combination cScore with sotorasib (Bliss gap around IC50) (%PoC); higher = stronger additive effect
Would you mind labelling by combination cScore with sotorasib? At or over -0.5 is Yes, under is No.

# count of solved cases: 5
Please tell me: is the compound CC(C)(C)c1cc(NC(=O)Nc2ccc(-c3cn4c(n3)sc3cc(OCCN5CCOCC5)ccc34)cc2)no1 [Quizartinib] + C=CC(=O)N1CCN(c2nc(=O)n(-c3c(C)ccnc3C(C)C)c3nc(-c4c(O)cccc4F)c(F)cc23)[C@@H](C)C1 [sotorasib] at or over -0.5 in terms of combination cScore with sotorasib?
No

Can CN[C@@H](C)C(=O)N[C@H](C(=O)N1CCC[C@H]1c1nc(C(=O)c2ccc(F)cc2)cs1)C1CCCCC1 [LCL161] + C=CC(=O)N1CCN(c2nc(=O)n(-c3c(C)ccnc3C(C)C)c3nc(-c4c(O)cccc4F)c(F)cc23)[C@@H](C)C1 [sotorasib] be said to have combination cScore with sotorasib at or above -0.5?
Yes

Would you say COc1cc2nc(C)nc(N[C@H](C)c3cc(N)cc(C(F)(F)F)c3)c2cc1O[C@H]1CCOC1 [BI-3406 (SOSi)] + C=CC(=O)N1CCN(c2nc(=O)n(-c3c(C)ccnc3C(C)C)c3nc(-c4c(O)cccc4F)c(F)cc23)[C@@H](C)C1 [sotorasib] shows combination cScore with sotorasib at minimum -0.5?
Yes

Given Cc1ncc([N+](=O)[O-])n1CCOC(=O)NC(Nc1ncccn1)C(Cl)(Cl)Cl (stereo unspecified) [Apcin] + C=CC(=O)N1CCN(c2nc(=O)n(-c3c(C)ccnc3C(C)C)c3nc(-c4c(O)cccc4F)c(F)cc23)[C@@H](C)C1 [sotorasib] , state whether its combination cScore with sotorasib is at least -0.5.
Yes

Check if combination cScore with sotorasib >= -0.5 (inclusive). Item: C[C@]1(c2nc3c(C(N)=O)cccc3[nH]2)CCCN1 [Veliparib] + C=CC(=O)N1CCN(c2nc(=O)n(-c3c(C)ccnc3C(C)C)c3nc(-c4c(O)cccc4F)c(F)cc23)[C@@H](C)C1 [sotorasib]
Yes

Others:
Exam item: decide whether the reported combination cScore with sotorasib for COc1cccc2c1C(=O)c1c(O)c3c(c(O)c1C2=O)C[C@@](O)(C(C)=O)C[C@@H]3O[C@H]1C[C@H](N)[C@H](O)[C@H](C)O1 [Daunorubicin] + C=CC(=O)N1CCN(c2nc(=O)n(-c3c(C)ccnc3C(C)C)c3nc(-c4c(O)cccc4F)c(F)cc23)[C@@H](C)C1 [sotorasib] is at least -0.5.
Yes

* * *

Test system: NCI-H358
testMethodNotes: combination cScore with adagrasib (Bliss gap around IC50) (%PoC); higher = stronger additive effect
reportedProperty: combination cScore with adagrasib
One number for each entry.

Examples with their reported combination cScore with adagrasib follow.
Any idea what its combination cScore with adagrasib is? The molecule is CCN(CCCOc1ccc2c(Nc3cc(CC(=O)Nc4cccc(F)c4)[nH]n3)ncnc2c1)CCOP(=O)(O)O [AZD-1152] + C=C(F)C(=O)N1CCN(c2nc(OC[C@@H]3CCCN3C)nc3c2CCN(c2cccc4cccc(Cl)c24)C3)C[C@@H]1CC#N
2.1

What value of combination cScore with adagrasib has been reported for the following molecule? COc1cc(CCc2cc(NC(=O)c3ccc(N4CC(C)NC(C)C4)cc3)n[nH]2)cc(OC)c1 (stereo unspecified) [AZD4547] + C=C(F)C(=O)N1CCN(c2nc(OC[C@@H]3CCCN3C)nc3c2CCN(c2cccc4cccc(Cl)c24)C3)C[C@@H]1CC#N
-1.38

Requested read-out: combination cScore with adagrasib. Entry: C=CC(=O)N1CCC[C@@H](n2nc(-c3ccc(Oc4ccccc4)cc3)c3c(N)ncnc32)C1 [Ibrutinib] + C=C(F)C(=O)N1CCN(c2nc(OC[C@@H]3CCCN3C)nc3c2CCN(c2cccc4cccc(Cl)c24)C3)C[C@@H]1CC#N
9.97

I need combination cScore with adagrasib for every entry listed below, if you could help.
1. CCCc1cc(C)[nH]c(=O)c1CNC(=O)c1cc(-c2ccnc(N3CCN(C)CC3)c2)cc2c1cnn2C(C)C [GSK343] + C=C(F)C(=O)N1CCN(c2nc(OC[C@@H]3CCCN3C)nc3c2CCN(c2cccc4cccc(Cl)c24)C3)C[C@@H]1CC#N
2. Cc1cc(C)c(CNC(=O)c2cc(-c3ccc(N4CCNCC4)nc3)cc3c2c(C)cn3C2CCCC2)c(=O)[nH]1 + C=C(F)C(=O)N1CCN(c2nc(OC[C@@H]3CCCN3C)nc3c2CCN(c2cccc4cccc(Cl)c24)C3)C[C@@H]1CC#N
3. CN(C)C/C=C/C(=O)Nc1cc2c(Nc3ccc(F)c(Cl)c3)ncnc2cc1O[C@H]1CCOC1 [Afatinib] + C=C(F)C(=O)N1CCN(c2nc(OC[C@@H]3CCCN3C)nc3c2CCN(c2cccc4cccc(Cl)c24)C3)C[C@@H]1CC#N

1. 4.64
2. 5.44
3. 11.5

* * *

System: NCI-H358
testMethodNotes: combination cScore with adagrasib (Bliss gap around IC50) (%PoC); higher = stronger additive effect
Give combination cScore with adagrasib for every item shown.
Numbers only.

Here's what some known entries look like.
What value of combination cScore with adagrasib has been recorded for this entry: C[C@H](NC(=O)c1c(N)nn2cccnc12)c1cc2cccc(C#Cc3cnn(C)c3)c2c(=O)n1-c1ccccc1 [IPI-549] + C=C(F)C(=O)N1CCN(c2nc(OC[C@@H]3CCCN3C)nc3c2CCN(c2cccc4cccc(Cl)c24)C3)C[C@@H]1CC#N
-0.57

Look up combination cScore with adagrasib for this compound: Cc1nc(Nc2n[nH]c3c2CN(C(=O)N[C@H](CN(C)C)c2ccccc2)C3(C)C)c2sccc2n1 + C=C(F)C(=O)N1CCN(c2nc(OC[C@@H]3CCCN3C)nc3c2CCN(c2cccc4cccc(Cl)c24)C3)C[C@@H]1CC#N
-5.91

Report combination cScore with adagrasib for each item below.
1. O=C1c2c(O)ccc(O)c2C(=O)c2c(NCCNCCO)ccc(NCCNCCO)c21 [Mitoxantrone] + C=C(F)C(=O)N1CCN(c2nc(OC[C@@H]3CCCN3C)nc3c2CCN(c2cccc4cccc(Cl)c24)C3)C[C@@H]1CC#N
2. CCNC(=O)C[C@@H]1N=C(c2ccc(Cl)cc2)c2cc(OC)ccc2-n2c(C)nnc21 [iBET-762] + C=C(F)C(=O)N1CCN(c2nc(OC[C@@H]3CCCN3C)nc3c2CCN(c2cccc4cccc(Cl)c24)C3)C[C@@H]1CC#N
3. COc1cc2ncnc(Nc3ccc(F)c(Cl)c3)c2cc1OCCCN1CCOCC1 [Gefitinib] + C=C(F)C(=O)N1CCN(c2nc(OC[C@@H]3CCCN3C)nc3c2CCN(c2cccc4cccc(Cl)c24)C3)C[C@@H]1CC#N
4. COC(=O)[C@]12CCC(C)(C)C[C@H]1[C@H]1C(=O)C=C3[C@@]4(C)C=C(C#N)C(=O)C(C)(C)[C@@H]4CC[C@@]3(C)[C@]1(C)CC2 [Bardoxolone methyl] + C=C(F)C(=O)N1CCN(c2nc(OC[C@@H]3CCCN3C)nc3c2CCN(c2cccc4cccc(Cl)c24)C3)C[C@@H]1CC#N

[0.02, 5.14, 12.5, -4.25]

* * *

Test system: SW837
testMethodNotes: combination cScore with adagrasib (Bliss gap around IC50) (%PoC); higher = stronger additive effect
Exercise: for every item that follows, state its recorded combination cScore with adagrasib.
Give bare numbers.

Write down the reported combination cScore with adagrasib of Nc1ccn([C@@H]2O[C@H](CO)[C@@H](O)[C@@H]2O)c(=O)n1 [Cytarabin] + C=C(F)C(=O)N1CCN(c2nc(OC[C@@H]3CCCN3C)nc3c2CCN(c2cccc4cccc(Cl)c24)C3)C[C@@H]1CC#N , test system: SW837.
6.75

Provide value of combination cScore with adagrasib for this record tested with SW837: Cc1[nH]c2ccccc2c1CCNCc1ccc(/C=C/C(=O)NO)cc1 [Panobinostat] + C=C(F)C(=O)N1CCN(c2nc(OC[C@@H]3CCCN3C)nc3c2CCN(c2cccc4cccc(Cl)c24)C3)C[C@@H]1CC#N
5.72

What measured combination cScore with adagrasib is associated with COc1cccc2c1C(=O)c1c(O)c3c(c(O)c1C2=O)C[C@@](O)(C(=O)CO)C[C@@H]3O[C@H]1C[C@H](N)[C@H](O)[C@H](C)O1 [Doxorubicin] + C=C(F)C(=O)N1CCN(c2nc(OC[C@@H]3CCCN3C)nc3c2CCN(c2cccc4cccc(Cl)c24)C3)C[C@@H]1CC#N on SW837?
4.49

// fetch SW837 combination cScore with adagrasib for Cc1ncc([N+](=O)[O-])n1CCOC(=O)NC(Nc1ncccn1)C(Cl)(Cl)Cl (stereo not given) [Apcin] + C=C(F)C(=O)N1CCN(c2nc(OC[C@@H]3CCCN3C)nc3c2CCN(c2cccc4cccc(Cl)c24)C3)C[C@@H]1CC#N
-0.93

Others:
Record lookup: for SW837, what combination cScore with adagrasib belongs to Cc1ccc(NC(=O)c2ccc(CN3CCN(C)CC3)cc2)cc1Nc1nc(-c2cccnc2)cs1 [Masitinib] + C=C(F)C(=O)N1CCN(c2nc(OC[C@@H]3CCCN3C)nc3c2CCN(c2cccc4cccc(Cl)c24)C3)C[C@@H]1CC#N ?
-2.55

Data provenance: the supplement of paper PMC11424490
